The reported measurements were obtained from patent US11952365B2.

- tested_system: human cathepsin L (Homo sapiens)
- Construct: purchased R&D Systems
- assay: cathepsin L assay
- Assay type: biochemical
- test_conditions: 10 pM human cathepsin L, Z-FR-AMC 2 μM, class symbols
experimental_readout: IC50

Fill in the blank: the reported IC50 of `CC(C)COCCNC(=O)C(=O)[C@H](C[C@@H]1CCNC1=O)NC(=O)[C@@H]1[C@H]2CCC[C@H]2CN1C(=O)c1cc2c(Cl)cc(Cl)cc2[nH]1` is ____.
1 to 10 µM

Next: `O=C1NCC[C@H]1C[C@H](NC(=O)[C@@H]1[C@H]2CCC[C@H]2CN1C(=O)c1cc2c(Cl)ccc(-c3ccccc3)c2[nH]1)C(=O)CO`
≥ 10 µM

Next: `N#C[C@H](C[C@@H]1CCNC1=O)NC(=O)[C@@H]1[C@H]2CCC[C@H]2CN1C(=O)c1cc2c(Cl)cc(Cl)cc2[nH]1`
≥ 10 µM
